target: IspD (Escherichia coli)
Sequence (Q46893 2-236): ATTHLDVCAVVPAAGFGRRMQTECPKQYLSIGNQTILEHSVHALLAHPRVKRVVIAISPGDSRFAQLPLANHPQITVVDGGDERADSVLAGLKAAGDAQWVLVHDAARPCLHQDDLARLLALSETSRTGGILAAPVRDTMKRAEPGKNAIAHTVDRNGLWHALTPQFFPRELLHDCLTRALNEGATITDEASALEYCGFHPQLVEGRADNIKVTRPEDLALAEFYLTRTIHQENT
property: pIC50
For clarity, pIC50 is expressed as the negative log10 of concentration in mol/L.

Form field: reported pIC50 of C[C@](O)(CO)[C@H](O)C[C@@H](F)P(=O)(O)O [5b]
3.15

----------
target: IspD (Plasmodium falciparum)
Sequence (Q8I273 60-734): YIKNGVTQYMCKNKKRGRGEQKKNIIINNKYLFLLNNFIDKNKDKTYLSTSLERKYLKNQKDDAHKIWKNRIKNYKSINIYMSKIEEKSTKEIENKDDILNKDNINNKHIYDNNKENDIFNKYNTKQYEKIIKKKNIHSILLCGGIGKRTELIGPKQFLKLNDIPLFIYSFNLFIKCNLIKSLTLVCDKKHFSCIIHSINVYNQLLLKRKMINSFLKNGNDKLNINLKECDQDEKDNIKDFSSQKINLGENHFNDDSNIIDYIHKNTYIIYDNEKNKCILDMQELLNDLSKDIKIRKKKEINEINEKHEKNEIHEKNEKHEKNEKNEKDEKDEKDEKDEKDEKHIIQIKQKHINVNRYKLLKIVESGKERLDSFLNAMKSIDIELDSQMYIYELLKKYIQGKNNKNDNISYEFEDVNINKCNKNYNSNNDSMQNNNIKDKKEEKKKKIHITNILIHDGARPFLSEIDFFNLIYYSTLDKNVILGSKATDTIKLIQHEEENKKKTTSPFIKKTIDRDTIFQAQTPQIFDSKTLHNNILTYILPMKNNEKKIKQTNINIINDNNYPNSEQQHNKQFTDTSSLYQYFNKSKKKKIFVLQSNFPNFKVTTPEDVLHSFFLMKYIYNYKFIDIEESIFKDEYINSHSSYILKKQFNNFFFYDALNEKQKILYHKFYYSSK
property: pIC50
pIC50 here: minus log base 10 of the concentration, concentration in moles per litre.

Look up pIC50 for this compound: C[C@](O)(CO)[C@H](O)C[C@@H](F)P(=O)(O)O [5b]
2.89
